# Test Summary: Protein binding in plasma by dialysis method
# Assay type: ADME, cell-free
# Assay Conditions: read-out: PPB (converted)
Value Kind: fraction unbound
Give bare numbers.

Q) Could you tell me which fraction unbound is on file for Cc1ncc(-c2ccc(C(=O)Nc3nc4cc(N(C)C(=O)c5ccccc5)ccc4n3CC(C)(C)O)s2)o1 ?
A) 0.013

###

# Test Summary: Volume of distribution at steady state in Sprague-Dawley rat at 1 mg/kg, iv
# Assay type: ADME, organism-based
# Design: dose 1 mg/kg, route intravenous
# Assay Conditions: in vivo, read-out: Vdss
Value Kind: Vd (L/kg)
Numbers only, in L/kg.

Q) Could you tell me which Vd is on file for C[C@H](NCc1ccc2c(c1)[nH]/c(=N\C(=O)c1ccc(-c3cn[nH]c3)s1)n2CC(C)(C)O)C(C)(C)C ?
A) 11.6

FYI, the data here is from ChEMBL document CHEMBL1153328.
